- target.of.assay: Sko1 (UniProt Q02100)
- Sequence: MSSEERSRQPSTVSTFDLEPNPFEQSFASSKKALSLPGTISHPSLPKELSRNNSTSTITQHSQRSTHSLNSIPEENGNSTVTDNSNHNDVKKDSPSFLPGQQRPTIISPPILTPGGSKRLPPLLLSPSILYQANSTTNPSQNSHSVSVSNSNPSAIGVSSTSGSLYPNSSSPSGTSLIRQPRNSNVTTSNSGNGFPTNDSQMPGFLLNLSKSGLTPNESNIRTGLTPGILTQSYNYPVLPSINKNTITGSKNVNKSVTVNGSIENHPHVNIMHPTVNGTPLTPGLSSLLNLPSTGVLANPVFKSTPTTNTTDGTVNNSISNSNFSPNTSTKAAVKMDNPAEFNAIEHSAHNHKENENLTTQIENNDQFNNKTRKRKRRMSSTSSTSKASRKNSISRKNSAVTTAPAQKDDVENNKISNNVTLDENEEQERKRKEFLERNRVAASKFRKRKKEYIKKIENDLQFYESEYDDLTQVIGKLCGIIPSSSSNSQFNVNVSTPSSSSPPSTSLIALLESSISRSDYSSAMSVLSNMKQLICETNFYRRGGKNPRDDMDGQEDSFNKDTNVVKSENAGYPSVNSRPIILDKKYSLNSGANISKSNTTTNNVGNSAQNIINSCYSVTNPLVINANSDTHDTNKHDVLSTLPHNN
- assay.protocol: PBM E-score (8-mer binding enrichment) (E-score (-0.5 to 0.5)); higher = stronger / more preferred TF binding
- test.parameters: protein concentration: 200 nM; construct: GST-full length
Over roughly 33,000 sequences, “E-score (-0.5 to 0.5)” has its median near -0.032; the highest 2% begin near 0.36. The list comes from a sample in which the highest values are over-represented; it also holds close analogues and randomly drawn sequences.
Assignment: determine reported PBM E-score for the given sequences.
Quick one: just the number, no unit, thanks!

Item: `ACACGTCT` | System: Sko1 (UniProt Q02100) | PBM E-score: 0.292

Item: `GATCCTCC` | System: Sko1 (UniProt Q02100) | PBM E-score: -0.264

Item: `GCGTAGGA` | System: Sko1 (UniProt Q02100) | PBM E-score: 0.0517

Item: `AAGTAGGC` | System: Sko1 (UniProt Q02100) | PBM E-score: -0.0531

Item: `ACACGTAG` | System: Sko1 (UniProt Q02100) | PBM E-score: 0.433

Item: `ACTGAAGA` | System: Sko1 (UniProt Q02100) | PBM E-score: 0.0507

Item: `AAGTAGGG` | System: Sko1 (UniProt Q02100) | PBM E-score: -0.0549

Item: `CCGTAGGA` | System: Sko1 (UniProt Q02100) | PBM E-score: -0.29

Item: `CCGTAGGC` | System: Sko1 (UniProt Q02100) | PBM E-score: -0.293

Item: `ACACGTAA` | System: Sko1 (UniProt Q02100) | PBM E-score: 0.472

Item: `ACACGGAG` | System: Sko1 (UniProt Q02100) | PBM E-score: -0.13

====

- target.of.assay: Sko1 (UniProt Q02100)
- Sequence: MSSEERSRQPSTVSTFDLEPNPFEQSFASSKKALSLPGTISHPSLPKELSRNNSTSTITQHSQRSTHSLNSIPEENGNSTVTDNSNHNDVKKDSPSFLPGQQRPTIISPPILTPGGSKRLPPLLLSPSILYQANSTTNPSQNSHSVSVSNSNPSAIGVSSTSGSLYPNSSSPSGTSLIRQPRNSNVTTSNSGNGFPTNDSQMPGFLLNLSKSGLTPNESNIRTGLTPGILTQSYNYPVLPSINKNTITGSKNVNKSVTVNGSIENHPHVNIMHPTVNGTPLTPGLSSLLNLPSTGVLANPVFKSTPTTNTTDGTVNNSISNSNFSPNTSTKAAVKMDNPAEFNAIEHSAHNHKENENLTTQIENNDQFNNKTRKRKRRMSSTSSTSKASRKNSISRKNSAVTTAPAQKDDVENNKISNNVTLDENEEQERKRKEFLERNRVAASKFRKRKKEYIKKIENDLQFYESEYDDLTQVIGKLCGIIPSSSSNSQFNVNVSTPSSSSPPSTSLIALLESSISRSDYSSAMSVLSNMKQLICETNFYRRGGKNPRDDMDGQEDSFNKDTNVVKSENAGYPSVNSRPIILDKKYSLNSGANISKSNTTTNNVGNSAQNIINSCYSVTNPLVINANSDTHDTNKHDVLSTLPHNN
- assay.protocol: PBM E-score (8-mer binding enrichment) (E-score (-0.5 to 0.5)); higher = stronger / more preferred TF binding
- test.parameters: protein concentration: 200 nM; construct: GST-full length
The full ranking holds about 33,000 sequences; the median of “E-score (-0.5 to 0.5)” is about -0.032, and the highest 2% start at about 0.36. This excerpt belongs to a sample that is enriched for the highest values.
experimental.endpoint: PBM E-score

// sample `CACGAATA` , its PBM E-score was 0.265

// sample `CATAATAG` , its PBM E-score was 0.116

// sample `TACGAATA` , its PBM E-score was 0.383

// sample `CGTGGTAC` , its PBM E-score was 0.213

// sample `AGTAATAG` , its PBM E-score was 0.264

// sample `GGTAATAA` , its PBM E-score was 0.185

// sample `GACGAATA` , its PBM E-score was 0.297

// sample `CATTGCAG` , its PBM E-score was 0.0387

// sample `CGTAATAC` , its PBM E-score was 0.451
